Reported inhibition at 1 µM values for a set of compounds
- Assay System: panel of 255 wild-type kinases (Homo sapiens)
- Experiment Summary: Kinase panel profiling at 1 µmol/L (MSA or IMAP), percentage inhibition
- Type: biochemical
- Measurement Parameters: kinase Erk1; 1 µmol/L single concentration; read-out: %-inhibition at 1 µmol/L, Erk1
Property Label: inhibition at 1 µM (%)

>  <Compound>
COc1cc2ncnc(Nc3ccc(F)c(Cl)c3)c2cc1NC(=O)/C=C/CN1CCCCC1 [dacomitinib]

>  <Assay System>
panel of 255 wild-type kinases (Homo sapiens)

>  <Property Label>
inhibition at 1 µM

>  <Numeric Value>
2.66

$$$$
>  <Compound>
C=CC(=O)N1CCC([C@@H]2CCNc3c(C(N)=O)c(-c4ccc(Oc5ccccc5)cc4)nn32)CC1 [zanubrutinib]

>  <Assay System>
panel of 255 wild-type kinases (Homo sapiens)

>  <Property Label>
inhibition at 1 µM

>  <Numeric Value>
-9

$$$$
>  <Compound>
CCN1CCN(c2ccc(Nc3cc(N(C)C(=O)Nc4c(Cl)c(OC)cc(OC)c4Cl)ncn3)cc2)CC1 [infigratinib]

>  <Assay System>
panel of 255 wild-type kinases (Homo sapiens)

>  <Property Label>
inhibition at 1 µM

>  <Numeric Value>
-4

$$$$
>  <Compound>
Cn1cnc2c(F)c(Nc3ccc(Br)cc3Cl)c(C(=O)NOCCO)cc21 [selumetinib]

>  <Assay System>
panel of 255 wild-type kinases (Homo sapiens)

>  <Property Label>
inhibition at 1 µM

>  <Numeric Value>
-4.67

$$$$

---

Reported inhibition at 1 µM values for a set of compounds
- Assay System: panel of 255 wild-type kinases (Homo sapiens)
- Experiment Summary: Kinase panel profiling at 1 µmol/L (MSA or IMAP), percentage inhibition
- Format: biochemical
- Measurement Parameters: kinase JNK1; 1 µmol/L single concentration; read-out: %-inhibition at 1 µmol/L, JNK1
Property Label: inhibition at 1 µM (%)

>  <Smiles Representation>
CO[C@]1(C(=O)N[C@@H](C)c2ccc(-n3cc(F)cn3)nc2)CC[C@H](c2nc(C)cc(Nc3cc(C)[nH]n3)n2)CC1

>  <Assay System>
panel of 255 wild-type kinases (Homo sapiens)

>  <Property Label>
inhibition at 1 µM

>  <Reading Unit>
%

>  <Numeric Value>
-5

$$$$
>  <Smiles Representation>
Cc1cc(Nc2ncnc3ccc(NC4=NC(C)(C)CO4)cc23)ccc1Oc1ccn2ncnc2c1

>  <Assay System>
panel of 255 wild-type kinases (Homo sapiens)

>  <Property Label>
inhibition at 1 µM

>  <Reading Unit>
%

>  <Numeric Value>
-3.72

$$$$
>  <Smiles Representation>
O=C(Nc1cnn2ccc(N3CCC[C@@H]3c3cc(F)ccc3F)nc12)N1CC[C@H](O)C1

>  <Assay System>
panel of 255 wild-type kinases (Homo sapiens)

>  <Property Label>
inhibition at 1 µM

>  <Reading Unit>
%

>  <Numeric Value>
-3.55

$$$$
>  <Smiles Representation>
CCN1CCN(c2ccc(Nc3cc(N(C)C(=O)Nc4c(Cl)c(OC)cc(OC)c4Cl)ncn3)cc2)CC1

>  <Assay System>
panel of 255 wild-type kinases (Homo sapiens)

>  <Property Label>
inhibition at 1 µM

>  <Reading Unit>
%

>  <Numeric Value>
-3.19

$$$$
>  <Smiles Representation>
COc1ccc(CN2C3CC2CN(c2ccc(-c4cc(OCC(C)(C)O)cn5ncc(C#N)c45)cn2)C3)cn1

>  <Assay System>
panel of 255 wild-type kinases (Homo sapiens)

>  <Property Label>
inhibition at 1 µM

>  <Reading Unit>
%

>  <Numeric Value>
-5.39

$$$$
>  <Smiles Representation>
CCn1c(=O)c(-c2cc(NC(=O)Nc3ccccc3)c(F)cc2Br)cc2cnc(NC)cc21

>  <Assay System>
panel of 255 wild-type kinases (Homo sapiens)

>  <Property Label>
inhibition at 1 µM

>  <Reading Unit>
%

>  <Numeric Value>
4

$$$$
>  <Smiles Representation>
Cn1cc(-c2cc3c(N4CCN(c5ncc([C@@](C)(N)c6ccc(F)cc6)cn5)CC4)ncnn3c2)cn1

>  <Assay System>
panel of 255 wild-type kinases (Homo sapiens)

>  <Property Label>
inhibition at 1 µM

>  <Reading Unit>
%

>  <Numeric Value>
-4.54

$$$$
>  <Smiles Representation>
FC(F)(F)c1ccc(CNc2ccc(Cc3c[nH]c4ncc(Cl)cc34)cn2)cn1

>  <Assay System>
panel of 255 wild-type kinases (Homo sapiens)

>  <Property Label>
inhibition at 1 µM

>  <Reading Unit>
%

>  <Numeric Value>
-1.87

$$$$
>  <Smiles Representation>
CCc1nc(C(N)=O)c(Nc2ccc(N3CCC(N4CCN(C)CC4)CC3)c(OC)c2)nc1NC1CCOCC1

>  <Assay System>
panel of 255 wild-type kinases (Homo sapiens)

>  <Property Label>
inhibition at 1 µM

>  <Reading Unit>
%

>  <Numeric Value>
29

$$$$
>  <Smiles Representation>
C[C@H]1Oc2cc(cnc2N)-c2c(nn(C)c2C#N)CN(C)C(=O)c2ccc(F)cc21

>  <Assay System>
panel of 255 wild-type kinases (Homo sapiens)

>  <Property Label>
inhibition at 1 µM

>  <Reading Unit>
%

>  <Numeric Value>
-0.746

$$$$
>  <Smiles Representation>
Cn1cnc2c(F)c(Nc3ccc(Br)cc3Cl)c(C(=O)NOCCO)cc21

>  <Assay System>
panel of 255 wild-type kinases (Homo sapiens)

>  <Property Label>
inhibition at 1 µM

>  <Reading Unit>
%

>  <Numeric Value>
-4.74

$$$$
>  <Smiles Representation>
Cc1nc(NC(=O)N2CCC[C@H]2C(N)=O)sc1-c1ccnc(C(C)(C)C(F)(F)F)c1

>  <Assay System>
panel of 255 wild-type kinases (Homo sapiens)

>  <Property Label>
inhibition at 1 µM

>  <Reading Unit>
%

>  <Numeric Value>
-5

$$$$
>  <Smiles Representation>
Cn1cnc2c(F)c(Nc3ccc(Br)cc3F)c(C(=O)NOCCO)cc21

>  <Assay System>
panel of 255 wild-type kinases (Homo sapiens)

>  <Property Label>
inhibition at 1 µM

>  <Reading Unit>
%

>  <Numeric Value>
-2.59

$$$$
>  <Smiles Representation>
C=CC(=O)N1CCC([C@@H]2CCNc3c(C(N)=O)c(-c4ccc(Oc5ccccc5)cc4)nn32)CC1

>  <Assay System>
panel of 255 wild-type kinases (Homo sapiens)

>  <Property Label>
inhibition at 1 µM

>  <Reading Unit>
%

>  <Numeric Value>
-3.49

$$$$
>  <Smiles Representation>
COc1cc2ncnc(Nc3ccc(F)c(Cl)c3)c2cc1NC(=O)/C=C/CN1CCCCC1

>  <Assay System>
panel of 255 wild-type kinases (Homo sapiens)

>  <Property Label>
inhibition at 1 µM

>  <Reading Unit>
%

>  <Numeric Value>
1.07

$$$$
>  <Smiles Representation>
COC(=O)N[C@@H](C)CNc1nccc(-c2cn(C(C)C)nc2-c2cc(Cl)cc(NS(C)(=O)=O)c2F)n1

>  <Assay System>
panel of 255 wild-type kinases (Homo sapiens)

>  <Property Label>
inhibition at 1 µM

>  <Reading Unit>
%

>  <Numeric Value>
6

$$$$
